# System: SARS-CoV-2 (Omicron variant)
# Assay Details: microbe, parasite or virus in culture
# Type: cell-based
# Settings: Severe acute respiratory syndrome coronavirus 2, Caco-2

Compound	Units Text	EC50
CC(C)(C)[C@H](NC(=O)C(F)(F)F)C(=O)N1C[C@H]2[C@@H]([C@H]1C(=O)N[C@H](C#N)C[C@@H]1CCNC1=O)C2(C)C [PF-07321332, Nirmatrelvir]	nM	33
